- system: human alpha-7 nAChR (Homo sapiens)
- Construct: expressed in transfected cells; host or cells: Xenopus laevis oocytes (cRNA injection)
- measurement-notes: Two-electrode voltage clamp of alpha-7 nAChR expressed in Xenopus oocytes (net charge)
- Type: cell-based
- run-parameters: compound together with choline or ACh; includes PAM and ago-PAM activity; area under the curve of current vs. time
endpoint: Charge +C
Answers are plain numbers.

compound	Charge +C
NS(=O)(=O)c1ccc2c(c1)[C@H]1C=CC[C@H]1[C@@H](c1scc(Br)c1Br)N2 (stereo in doubt) [Compound 38]	1246

Value sought for every listed compound: Charge +C.
1. NS(=O)(=O)c1ccc2c(c1)[C@H]1C=CC[C@H]1[C@@H](c1ccc([N+](=O)[O-])cc1)N2 (stereo in doubt) [Compound 8]
2. NS(=O)(=O)c1ccc2c(c1)[C@H]1C=CC[C@H]1[C@@H](c1ccc(OCc3ccccc3)cc1)N2 [Compound 50]

318
67

###

- system: human alpha-7 nAChR (Homo sapiens)
- Construct: expressed in transfected cells; host or cells: Xenopus laevis oocytes (cRNA injection)
- measurement-notes: Two-electrode voltage clamp of alpha-7 nAChR expressed in Xenopus oocytes (net charge)
- Format: cell-based
- run-parameters: compound alone acting as an allosteric agonist; area under the curve of current vs. time
endpoint: Charge Alone

molecule	Charge Alone
O=C(O)c1ccc2c(c1)[C@H]1C=CC[C@H]1[C@@H](c1ccc(Br)cc1)N2 (stereo in doubt) [Compound 40]	Inactive
NS(=O)(=O)c1ccc2c(c1)C1C=CCC1C(c1ccc(C(=O)O)cc1)N2 (stereo not shown) [Compound 58]	Inactive
CCC(C)CNS(=O)(=O)c1ccc2c(c1)[C@H]1C=CC[C@H]1[C@@H](c1ccc(Br)cc1)N2 (stereo in doubt) [Compound 109]	Inactive
NS(=O)(=O)c1ccc2c(c1)[C@H]1C=CC[C@H]1[C@@H](C1CCCCC1)N2 (stereo in doubt) [Compound 19]	Inactive
O=S(=O)(c1ccc2c(c1)[C@H]1C=CC[C@H]1[C@@H](c1ccc(Br)cc1)N2)N1CCOCC1 (stereo in doubt) [Compound 23]	Inactive
[N-]=[N+]=Nc1ccc([C@@H]2Nc3ccc(S(N)(=O)=O)cc3[C@@H]3C=CC[C@@H]32)cc1 [Compound 47]	Inactive

O=S(=O)(NC1CCCCC1)c1ccc2c(c1)[C@H]1C=CC[C@H]1[C@@H](c1ccc(Br)cc1)N2 (stereo in doubt) [Compound 102] has a reported Charge Alone of Inactive

###

- system: human alpha-7 nAChR (Homo sapiens, UniProt P36544)
- Construct: expressed in transfected cells; host or cells: Xenopus laevis oocytes (cRNA injection)
- Sequence (P36544 23-502): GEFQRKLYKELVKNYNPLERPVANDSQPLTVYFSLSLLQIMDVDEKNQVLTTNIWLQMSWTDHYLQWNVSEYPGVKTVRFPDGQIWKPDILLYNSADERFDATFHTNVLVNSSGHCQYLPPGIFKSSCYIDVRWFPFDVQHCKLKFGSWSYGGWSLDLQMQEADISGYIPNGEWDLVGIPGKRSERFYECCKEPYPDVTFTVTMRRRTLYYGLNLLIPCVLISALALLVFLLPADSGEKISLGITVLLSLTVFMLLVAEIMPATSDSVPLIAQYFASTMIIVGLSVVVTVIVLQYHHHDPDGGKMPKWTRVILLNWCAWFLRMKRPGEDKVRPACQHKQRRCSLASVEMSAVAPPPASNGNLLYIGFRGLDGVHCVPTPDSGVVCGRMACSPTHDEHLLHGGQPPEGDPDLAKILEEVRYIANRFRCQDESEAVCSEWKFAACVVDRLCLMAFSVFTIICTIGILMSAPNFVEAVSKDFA
- measurement-notes: Two-electrode voltage clamp of alpha-7 nAChR expressed in Xenopus oocytes (net charge)
- Format: cell-based
- run-parameters: compound together with choline or ACh; includes PAM and ago-PAM activity; area under the curve of current vs. time
Provide the reported Charge +C of each item.
Numbers only.

compound	system	assay-result
CC(C)(C)CC(=O)Nc1ccc([C@H]2Nc3ccc(S(N)(=O)=O)cc3[C@H]3C=CC[C@H]32)cc1 (stereo in doubt) [Compound 64]	human alpha-7 nAChR (Homo sapiens, UniProt P36544)	652

Value sought for every listed compound: Charge +C.
1. CC(C)(C)COC(=O)c1ccc([C@H]2Nc3ccc(S(N)(=O)=O)cc3[C@H]3C=CC[C@H]32)cc1 (stereo in doubt) [Compound 70]
2. NS(=O)(=O)c1ccc2c(c1)[C@H]1C=CC[C@H]1[C@@H](c1cc(Br)sc1Br)N2 [Compound 67]
3. NS(=O)(=O)c1ccc2c(c1)[C@H]1C=CC[C@H]1[C@@H](c1ccc(CCCBr)cc1)N2 [Compound 71]

1: 487; 2: 100; 3: 284
